- System: mallotoxin response in HT29
- Assay Notes: Epic label-free DMR biosensor cellular assay, hERG activator mallotoxin marker in HT29
- Measurement Setup: MTX at 16 micromolar

{"columns": ["Line Notation", "Study System", "impact on DMR signal of MTX in HT29"],
 "data": [
  ["CCOC(=O)c1c(C)[nH]c(/C=C2\\C(=O)Nc3ccccc32)c1C", "mallotoxin response in HT29", "little impact"],
  ["c1ccc(-c2cnc(Nc3ccc(OCCN4CCCC4)cc3)s2)cc1", "mallotoxin response in HT29", "little impact"],
  ["O=C1Nc2ccc(Br)cc2/C1=C/c1cc2c([nH]1)CCCC2", "mallotoxin response in HT29", "little impact"]
]}

====

- Test system: NT response in HT29
- Assay Notes: Epic label-free DMR biosensor cellular assay, neurotensin marker in HT29
- Type: cell-based, human
- Measurement Setup: NT at 2 nM
Measurement Label: impact on DMR signal of NT in HT29

{"columns": ["Line Notation", "Val"],
 "data": [
  ["c1ccc(-c2cnc(Nc3ccc(OCCN4CCCC4)cc3)s2)cc1", "little impact"],
  ["O=C1Nc2ccc(Br)cc2/C1=C/c1cc2c([nH]1)CCCC2", "little impact"],
  ["CCOC(=O)c1c(C)[nH]c(/C=C2\\C(=O)Nc3ccccc32)c1C", "little impact"]
]}
